This collection of values is drawn from patent US20240360238A1.

Molecular target: T1, purified rhesus CD117 ectodomain (rhesus, UniProt F6V858 26-524)
T1 construct: extracellular domain; also called rhesus antigen
Assay: BLI, purified IgG on sensor, soluble rhesus ectodomain; apparent monovalent

binder: HC-24/LC-24 (Ab24) (antibody, IgG1, V domains shown, From rat immunization/hybridoma; purified IgG in BLI; also called 024) VH: EVQLVESGGGLVQSGRSLKLSCAASGFTVSDYYMAWVRQAPTKGLEWVATINYDGSTTYHRDSVKGRFTISRDNAKSTLYLQMDSLRSEDTATYYCARHGDYGYHYGAYYFDYWGQGVMVTVSS VL: DIVLTQSPALAVSLGQRATISCRASQTVSLSGYNLIHWYQQRTGQQPKLLIYRASNLAPGIPARFSGSGSGTDFTLTISPVQSDDIATYYCQQSRESWTFGGGTNLEMK
unitDescriptor: s⁻¹
koff: 0.000777
//
binder: HC-18/LC-18 (Ab18) (antibody, IgG1, V domains shown, From rat immunization/hybridoma; purified IgG in BLI; also called 018) VH: EVQLQQYGAELGKPGTSVRLSCKVSGYNIRNTYIHWVNQRPGEGLEWIGRIDPTNGNTISAEKFKTKATLTADTSSHTAYLQFSQLKSDDTAIYFCALNYEGYADYWGQGVMVTGSS VL: DIQMTQSPSFLSASVGDRVTINCKASQNINKYLNWYQQKVGEAPKRLIFKTNSLQTGIPSRFSGSGSGTDYTLTISSLQTEDVATYFCFQYNIGYTFGAGTKVELK
unitDescriptor: s⁻¹
koff: 0.0119
//
binder: HC-27/LC-27 (Ab27) (antibody, IgG1, V domains shown, From rat immunization/hybridoma; purified IgG in BLI; also called 027) VH: EVQLVESGGGLVQPGRSMKLSCKASGFTFSNYDMAWVRQAPTRGLEWVASISYDGITAYYRDSVKGRFTISRENAKSTLYLQLVSLRSEDTATYYCTTEGGYVYSGPHYFDYWGQGVMVTVSS VL: DIQMTQSPSSMSVSLGDTVTITCRASQDVGIFVNWFQQKPGRSPRRMIYRATNLADGVPSRFSGSRSGSDYSLTISSLESEDVADYHCLQYDEFPRTFGGGTKLELK
unitDescriptor: s⁻¹
koff: 0.000275
//
binder: HC-21/LC-21 (Ab21) (antibody, IgG1, V domains shown, From rat immunization/hybridoma; purified IgG in BLI; also called 021) VH: QIQLVQSGPELKKPGESVKISCKASGYTFTDYAVYWVIQAPGKGLKWMGWINTYTGKPTYADDFKGRFVFSLETSASTANLQISNLKNEDTATYFCARGAGMTKDYVMDAWGRGVLVTVS VL: SYELIQPPSASVTLGNTVSLTCVGDELSKRYAQWYQQKPDKTIVSVIYKDSERPSDISDRFSGSSSGTTATLTIHGTLAEDEADYYCLSTYSDDNLPVFGGGTKLTVL
unitDescriptor: s⁻¹
koff: 0.000357
//
binder: HC-23/LC-23 (Ab23) (antibody, IgG1, V domains shown, From rat immunization/hybridoma; purified IgG in BLI; also called 023) VH: EVQLQQYGAELGKPGTSVRLSCKVSGYNIRNTYIHWVHQRPGEGLEWIGRIDPTNGNTISAEKFKSKATLTADTSSNTAYMQFSQLKSDDTAIYFCAMNYEGYADYWGQGVMVTVSS VL: DIQMTQSPSFLSASVGDRLTINCKASQNINKYLNWYQQKLGEAPKRLIFKTNSLQTGIPSRFSGSGSGTDYTLTISSLQPEDVATYFCFQYNIGFTFGAGTKLELK
unitDescriptor: s⁻¹
koff: 0.00214
//
binder: HC-17/LC-17 (Ab17) (antibody, IgG1, V domains shown, From rat immunization/hybridoma; purified IgG in BLI; also called 017) VH: QIQLVQSGPELRKPGESVKISCKASGYTFTDYAMYWVKQAPGKGLKWMGWINTYTGKPTYADDFKGRFVFSLEASANTANLQISNLKNEDTATYFCARARGLVDDYVMDAWGQGTSVTVSS VL: SYELIQPPSASVTLGNTVSLTCVGDELSKRYAQWYQQKPDKTIVSVIYKDSERPSGISDRFSGSSSGTTATLTIHGTLAEDEADYYCLSTYSDDNLPVFGGGTKLTVL
unitDescriptor: s⁻¹
koff: 0.000173
//
binder: HC-19/LC-19 (Ab19) (antibody, IgG1, V domains shown, From rat immunization/hybridoma; purified IgG in BLI; also called 019) VH: EVQLQESGPGLVKPSQSLSLTCSVTGYSISSNYRWNWIRKFPGNKVEWMGYINSAGSTNYNPSLKSRISMTRDTSKNQFFLQVNSVTTEDTATYYCARSLRGYITDYSGFFDYWGQGVMVTVSS VL: DIRMTQSPASLSASLGETVNIECLASEDIFSDLAWYQQKPGKSPQLLIYNANSLQNGVPSRFSGSGSGTRYSLKINSLQSEDVATYFCQQYKNYPLTFGSGTKLEIK
unitDescriptor: s⁻¹
koff: 0.000415
//
binder: HC-28/LC-28 (Ab28) (antibody, IgG1, V domains shown, From rat immunization/hybridoma; purified IgG in BLI; also called 028) VH: EVQLQQYGAELGKPGTSVRLSCKVSGYKIRNTYIHWVNQRPGKGLEWIGRIDPANGNTIYAEKFKSKVTLTADTSSNTAYMQLSQLKSDDTALYFCAMNYEGYEDYWGQGVMVTVSS VL: DIQMTQSPSFLSASVGDSVTINCKASQNINKYLNWYQQKLGEAPKRLIHKTNSLQPGFPSRFSGSGSGTDYTLTISSLQPEDVAAYFCFQYNSGFTFGAGTKLELK
unitDescriptor: s⁻¹
koff: 0.00187
//
binder: HC-25/LC-25 (Ab25) (antibody, IgG1, V domains shown, From rat immunization/hybridoma; purified IgG in BLI; also called 025) VH: QIQLVQSGPELKKPGESVKISCKASGYTFTDYAIHWVKQAPGQGLRWMAWINTETGKPTYADDFKGRFVFSLEASASTAHLQISNLKNEDTATFFCAGGSHWFAYWGQGTLVTVSS VL: SYELIQPPSASVTLENTVSITCSGDELSNKYAHWYQQKPDKTILEVIYNDSERPSGISDRFSGSSSGTTAILTIRDAQAEDEADYYCLSTFSDDDLPIFGGGTKLTVL
unitDescriptor: s⁻¹
koff: 0.00195
//
binder: HC-20/LC-20 (Ab20) (antibody, IgG1, V domains shown, From rat immunization/hybridoma; purified IgG in BLI; also called 020) VH: EVQLQQYGAELGKPGTSVRLSCKLSGYKIRNTYIHWVNQRPGKGLEWIGRIDPANGNTIYAEKFKSKVTLTADTSSNTAYMQLSQLKSDDTALYFCAMNYEGYEDYWGQGVMVTVSS VL: DIQMTQSPSFLSASVGDSVTINCKASQNINKYLNWYQQKLGEAPKRLIHKTDSLQTGIPSRFSGSGSGTDYTLTISSLQPEDVATYFCFQYKSGFMFGAGTKLELK
unitDescriptor: s⁻¹
koff: 0.000585
//
binder: HC-22/LC-22 (Ab22) (antibody, IgG1, V domains shown, From rat immunization/hybridoma; purified IgG in BLI; also called 022) VH: QVQLKESGPGLVQPSQTLSLTCTVSGFSLTSYLVHWVRQPPGKTLEWVGLMWNDGDTSYNSALKSRLSISRDTSKSQVFLKMHSLQAEDTATYYCARESNLGFTYWGHGTLVTVSS VL: DIQMTQSPASLSASLEEIVTITCKASQGIDDDLSWYQQKPGKSPQLLIYDVTRLADGVPSRFSGSRSGTQYSLKISRPQVADSGIYYCLQSYSTPYTFGAGTKLELK
unitDescriptor: s⁻¹
koff: 0.000155
